# Test system: HEK-mFAP cells
# assayText: CellTiter-Blue cell viability assay with HEK-mFAP cells
# Type: cell-based, human
# conditionDetails: Homo sapiens, 72 h, 5057DOX assay 3, 72 hour incubation, read-out: EC50 (doxorubicin alone)
quantityName: pEC50
Answers are plain numbers, as −log10 of the molar value.

Item COc1cccc2c1C(=O)c1c(O)c3c(c(O)c1C2=O)C[C@@](O)(C(=O)CO)C[C@@H]3O[C@H]1C[C@H](N)[C@H](O)[C@H](C)O1 [doxorubicin, reference compound] was tested on HEK-mFAP cells; the reported pEC50 is 6.62

###

# Test system: HEK-mFAP cells
# assayText: CellTiter-Blue cell viability assay with HEK-mFAP cells
# Type: cell-based, human
# conditionDetails: Homo sapiens, 72 h, 5057DOX assay 4, 72 hour incubation, read-out: EC50 (doxorubicin alone)
quantityName: pEC50
One number for each entry, as −log10 of the molar value.

Entry COc1cccc2c1C(=O)c1c(O)c3c(c(O)c1C2=O)C[C@@](O)(C(=O)CO)C[C@@H]3O[C@H]1C[C@H](N)[C@H](O)[C@H](C)O1 [doxorubicin, reference compound] — recorded pEC50 = 6.38

###

# Tested on: MCF-7
# assayText: CellTiter-Blue cell viability assay: MCF-7
# Type: cell-based
# conditionDetails: Homo sapiens, MCF7, 5057DOX assay 5, 72 hour incubation, read-out: EC50 (doxorubicin alone)
quantityName: pEC50
Give bare numbers, as −log10 of the molar value.

Case COc1cccc2c1C(=O)c1c(O)c3c(c(O)c1C2=O)C[C@@](O)(C(=O)CO)C[C@@H]3O[C@H]1C[C@H](N)[C@H](O)[C@H](C)O1 [doxorubicin, reference compound] , MCF-7, pEC50 recorded as 4.27

###

# Tested on: HPAF-II
# assayText: Cytotoxicity against tumor lines: HPAF-II
# Assay type: cell-based
# conditionDetails: Homo sapiens, compound alone
quantityName: EC50 (nM)
One number for each entry, in nM.

Input COc1cccc2c1C(=O)c1c(O)c3c(c(O)c1C2=O)C[C@@](O)(C(=O)CO)C[C@@H]3O[C@H]1C[C@H](N)[C@H](O)[C@H](C)O1 [doxorubicin, reference compound] . Output EC50: 2000
